From: patent US20250171438A1

- SUBJECT OF TEST: human PAH with the R408W mutation (Homo sapiens, UniProt P00439, R408W)
- Construct: expressed in transfected cells
- ASSAY OVERVIEW: Cell Based Phenylalanine Flux Assay
- ASSAY CONTEXT: A375 cells expressing human R408W PAH; 24 hrs with compound; 13C-Tyrosine by LC-MS; average where tested multiple times; read-out: AC50
MEASURED ENDPOINT: AC50

[[record]]
compound = "O=C(c1cnc[nH]1)N1CCc2[nH]cnc2C1c1nc2ccccc2s1 (stereo not shown)"
subject_of_test = "human PAH with the R408W mutation (Homo sapiens, UniProt P00439, R408W)"
observed_measurement = "> 5 µM"

[[record]]
compound = "O=C(c1nnc(CCCN2CC(F)C2)o1)N1CCc2[nH]cnc2C1c1nc2ccccc2s1 (stereo not shown)"
subject_of_test = "human PAH with the R408W mutation (Homo sapiens, UniProt P00439, R408W)"
observed_measurement = "1 to 5 µM"

[[record]]
compound = "O=C(c1cocn1)N1CCc2[nH]cnc2[C@H]1c1nc2ccccc2[nH]1"
subject_of_test = "human PAH with the R408W mutation (Homo sapiens, UniProt P00439, R408W)"
observed_measurement = "1 to 5 µM"

[[record]]
compound = "Cn1nc(C(C)(C)O)cc1C(=O)N1CCc2[nH]cnc2C1c1nc2c(F)cccc2s1 (stereo not shown)"
subject_of_test = "human PAH with the R408W mutation (Homo sapiens, UniProt P00439, R408W)"
observed_measurement = "1 to 5 µM"

[[record]]
compound = "CN(C)CCCc1nnc(C(=O)N2CCc3[nH]cnc3[C@@H]2c2nc3ccccc3s2)o1 (single isomer, unassigned)"
subject_of_test = "human PAH with the R408W mutation (Homo sapiens, UniProt P00439, R408W)"
observed_measurement = "> 5 µM"

[[record]]
compound = "O=C(c1nnc(CCN2CCOCC2)o1)N1CCc2[nH]cnc2C1c1nc2ccccc2s1 (stereo not shown)"
subject_of_test = "human PAH with the R408W mutation (Homo sapiens, UniProt P00439, R408W)"
observed_measurement = "1 to 5 µM"

[[record]]
compound = "O=C(c1cnco1)N1CCc2[nH]cnc2C1c1nc2c(F)cccc2s1 (stereo not shown)"
subject_of_test = "human PAH with the R408W mutation (Homo sapiens, UniProt P00439, R408W)"
observed_measurement = "1 to 5 µM"

[[record]]
compound = "Cc1nnc(CCC(=O)N2CCc3[nH]cnc3C2c2nc3ccccc3[nH]2)s1 (stereo not shown)"
subject_of_test = "human PAH with the R408W mutation (Homo sapiens, UniProt P00439, R408W)"
observed_measurement = "1 to 5 µM"

[[record]]
compound = "O=C(Cc1nc(C(F)(F)F)cs1)N1CCc2[nH]cnc2C1c1nc2ccc(F)cc2s1 (stereo not shown)"
subject_of_test = "human PAH with the R408W mutation (Homo sapiens, UniProt P00439, R408W)"
observed_measurement = "> 5 µM"

[[record]]
compound = "O=C(c1cnn2cccc(F)c12)N1CCc2[nH]cnc2C1c1nc2ccc(Br)cc2[nH]1 (stereo not shown)"
subject_of_test = "human PAH with the R408W mutation (Homo sapiens, UniProt P00439, R408W)"
observed_measurement = "> 5 µM"

[[record]]
compound = "Cn1nc(COC(F)(F)F)cc1C(=O)N1CCc2[nH]cnc2C1c1nc2c(F)cccc2s1 (stereo not shown)"
subject_of_test = "human PAH with the R408W mutation (Homo sapiens, UniProt P00439, R408W)"
observed_measurement = "> 5 µM"

[[record]]
compound = "O=C(c1ocnc1CO)N1CC2(CC2)c2[nH]cnc2C1c1nc2ccccc2s1 (stereo not shown)"
subject_of_test = "human PAH with the R408W mutation (Homo sapiens, UniProt P00439, R408W)"
observed_measurement = "1 to 5 µM"

[[record]]
compound = "O=C(CCc1nccs1)N1CCc2[nH]cnc2C1c1nc2c(Br)cccc2s1 (stereo not shown)"
subject_of_test = "human PAH with the R408W mutation (Homo sapiens, UniProt P00439, R408W)"
observed_measurement = "1 to 5 µM"

[[record]]
compound = "O=C(c1cnco1)N1CCc2[nH]cnc2[C@H]1c1nc2ccccc2[nH]1"
subject_of_test = "human PAH with the R408W mutation (Homo sapiens, UniProt P00439, R408W)"
observed_measurement = "1 to 5 µM"

[[record]]
compound = "Cn1nc(-c2ccc(Cl)cc2)cc1C(=O)N1CCc2[nH]cnc2C1c1nc2c(F)cccc2s1 (stereo not shown)"
subject_of_test = "human PAH with the R408W mutation (Homo sapiens, UniProt P00439, R408W)"
observed_measurement = "1 to 5 µM"

[[record]]
compound = "O=C(Cc1nc2ccccc2s1)N1CCc2[nH]cnc2C1c1nc2ccccc2s1 (stereo not shown)"
subject_of_test = "human PAH with the R408W mutation (Homo sapiens, UniProt P00439, R408W)"
observed_measurement = "1 to 5 µM"

[[record]]
compound = "Cc1nnc(CCC(=O)N2CCc3[nH]cnc3C2c2nc3ccc(F)cc3[nH]2)s1 (stereo not shown)"
subject_of_test = "human PAH with the R408W mutation (Homo sapiens, UniProt P00439, R408W)"
observed_measurement = "> 5 µM"


---

Listed below: AC50 values for each entry.
- SUBJECT OF TEST: human PAH with the R408W mutation (Homo sapiens, UniProt P00439, R408W)
- Construct: expressed in transfected cells
- Sequence (P00439 1-452 R408W): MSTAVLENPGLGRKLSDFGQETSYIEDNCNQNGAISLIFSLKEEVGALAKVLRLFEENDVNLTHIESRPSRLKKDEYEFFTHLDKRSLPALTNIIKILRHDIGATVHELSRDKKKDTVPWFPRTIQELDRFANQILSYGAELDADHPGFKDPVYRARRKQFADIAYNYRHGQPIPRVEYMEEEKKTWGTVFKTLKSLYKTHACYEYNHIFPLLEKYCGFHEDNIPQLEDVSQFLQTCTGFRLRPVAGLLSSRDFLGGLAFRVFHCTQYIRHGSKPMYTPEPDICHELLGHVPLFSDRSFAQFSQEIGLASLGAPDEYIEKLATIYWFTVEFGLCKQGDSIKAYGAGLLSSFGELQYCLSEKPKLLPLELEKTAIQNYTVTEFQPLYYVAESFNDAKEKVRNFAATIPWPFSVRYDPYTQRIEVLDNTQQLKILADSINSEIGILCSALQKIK
- ASSAY OVERVIEW: Cell Based Phenylalanine Flux Assay
- ASSAY CONTEXT: A375 cells expressing human R408W PAH; 24 hrs with compound; 13C-Tyrosine by LC-MS; average where tested multiple times; read-out: AC50
MEASURED ENDPOINT: AC50

[[record]]
compound = "O=C(Cc1nc(C(F)(F)F)cs1)N1CCc2[nH]cnc2C1c1nc2c(F)cccc2s1 (centres unmarked)"
observed_measurement = "> 5 µM"

[[record]]
compound = "O=C(c1ccsn1)N1CCc2[nH]cnc2[C@H]1c1nc2ccccc2[nH]1"
observed_measurement = "1 to 5 µM"

[[record]]
compound = "Cc1nc(N2CCOCC2)oc1C(=O)N1CCc2[nH]cnc2C1c1nc2c(F)cccc2s1 (centres unmarked)"
observed_measurement = "> 5 µM"


---

- SUBJECT OF TEST: human PAH with the R408W mutation (Homo sapiens, UniProt P00439, R408W)
- Construct: expressed in transfected cells
- Sequence (P00439 1-452 R408W): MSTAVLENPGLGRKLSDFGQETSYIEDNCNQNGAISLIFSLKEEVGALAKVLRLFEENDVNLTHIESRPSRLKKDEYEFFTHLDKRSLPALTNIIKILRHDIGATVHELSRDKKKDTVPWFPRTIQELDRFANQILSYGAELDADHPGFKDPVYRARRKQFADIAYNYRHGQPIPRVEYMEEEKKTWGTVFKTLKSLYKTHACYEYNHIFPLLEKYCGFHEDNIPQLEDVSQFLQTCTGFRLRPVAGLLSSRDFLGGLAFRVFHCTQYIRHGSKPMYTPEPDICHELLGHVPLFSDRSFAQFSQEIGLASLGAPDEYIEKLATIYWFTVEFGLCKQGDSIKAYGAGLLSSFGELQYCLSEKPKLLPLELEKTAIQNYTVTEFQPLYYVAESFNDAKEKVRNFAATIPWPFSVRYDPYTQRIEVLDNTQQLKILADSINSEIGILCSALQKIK
- ASSAY OVERVIEW: Cell Based Phenylalanine Flux Assay
- ASSAY CONTEXT: A375 cells expressing human R408W PAH; 24 hrs compound incubation; 13C-Tyrosine by LC-MS; average where tested multiple times; read-out: AC50
MEASURED ENDPOINT: AC50

[[record]]
structure_smiles_string = "Cc1ccc2c(C(=O)N3CCc4[nH]cnc4[C@@H]3c3nc4c(C)cccc4s3)cnn2c1"
measured_endpoint = "AC50"
observed_measurement = "1 to 5 µM"

[[record]]
structure_smiles_string = "O=C(CC1(O)CCC1)N1CCc2[nH]cnc2[C@@H]1c1nc2c(F)cccc2s1"
measured_endpoint = "AC50"
observed_measurement = "1 to 5 µM"

[[record]]
structure_smiles_string = "O=C(c1oc(NC2CC2)nc1C(F)F)N1CCc2[nH]cnc2[C@H]1c1nc2ccccc2s1"
measured_endpoint = "AC50"
observed_measurement = "< 0.5 µM"

[[record]]
structure_smiles_string = "CC(C)(O)c1nnc(C(=O)N2CCc3[nH]cnc3[C@@H]2c2nc3ccccc3s2)o1"
measured_endpoint = "AC50"
observed_measurement = "1 to 5 µM"

[[record]]
structure_smiles_string = "O=C(c1cnn2ccc(Br)cc12)N1CCc2[nH]cnc2[C@H]1c1nc2ccccc2[nH]1"
measured_endpoint = "AC50"
observed_measurement = "1 to 5 µM"

[[record]]
structure_smiles_string = "O=C(c1cnc(C2CC2)o1)N1CCc2[nH]cnc2[C@H]1c1nc2c(F)cccc2s1"
measured_endpoint = "AC50"
observed_measurement = "< 0.5 µM"

[[record]]
structure_smiles_string = "CC(C)(O)c1cccc2c(C(=O)N3CCc4[nH]cnc4[C@@H]3c3nc4ccccc4s3)cnn12"
measured_endpoint = "AC50"
observed_measurement = "1 to 5 µM"

